Give measured switch fluorescence ratio for each item. Keep answers brief.
# System: ATP;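 note: ATP exposure 15 min at 22 °C before imaging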
# METHOD SUMMARY: switch fluorescence ratio, 500 uM ATP over buffer (Cy3 cluster intensity, sum of 5 cycles each) (fold (ratio)); higher = stronger signal-on switching upon ATP binding; sequences stand for … in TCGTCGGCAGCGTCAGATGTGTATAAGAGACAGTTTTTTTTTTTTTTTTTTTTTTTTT…TC
# DETAILS: aptamer strand: ATP DNA aptamer (quencher-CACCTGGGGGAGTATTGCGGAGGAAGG + anchor), 100 nM annealed; ATP concentration: 500 uM
I'd appreciate a reply containing only the number, no unit.

In plain terms, "AAGGTTTCAT" has a documented switch fluorescence ratio of 1

In plain terms, "GTAAGAGGGG" has a documented switch fluorescence ratio of 1.02

In plain terms, "TGAAAAAGG" has a documented switch fluorescence ratio of 0.982

In plain terms, "TGGGGTTTAT" has a documented switch fluorescence ratio of 1.01

In plain terms, "TATTTGGTAT" has a documented switch fluorescence ratio of 0.986

In plain terms, "GCGATTGTGT" has a documented switch fluorescence ratio of 1

In plain terms, "AAACTTTTTC" has a documented switch fluorescence ratio of 1.02

In plain terms, "ATCGGTTACC" has a documented switch fluorescence ratio of 1.01

In plain terms, "ACATACATTG" has a documented switch fluorescence ratio of 1.27

---

# Test system: ATP;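 note: ATP exposure 15 min at 22 °C before imaging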
# METHOD SUMMARY: switch fluorescence ratio, 500 uM ATP over buffer (Cy3 cluster intensity, sum of 5 cycles each) (fold (ratio)); higher = stronger signal-on switching upon ATP binding; sequences stand for … in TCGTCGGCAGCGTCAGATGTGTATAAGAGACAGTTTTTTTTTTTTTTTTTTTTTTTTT…TC
# DETAILS: aptamer strand: ATP DNA aptamer (quencher-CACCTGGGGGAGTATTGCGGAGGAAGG + anchor), 100 nM annealed; ATP concentration: 500 uM
QUANTITY KIND: switch fluorescence ratio
I'd appreciate a reply containing only the number, no unit.

In plain terms, "TGTCTCCCTT" has a documented switch fluorescence ratio of 1.01

In plain terms, "GAGTGTTTAG" has a documented switch fluorescence ratio of 1.01

In plain terms, "GATTGGTGGG" has a documented switch fluorescence ratio of 1

In plain terms, "ACTTTGGGCG" has a documented switch fluorescence ratio of 0.932

In plain terms, "TGGGGGGATG" has a documented switch fluorescence ratio of 0.996

In plain terms, "TATAAGAGTG" has a documented switch fluorescence ratio of 1.03

In plain terms, "GGGGCGGATG" has a documented switch fluorescence ratio of 0.968

In plain terms, "CGGTGGTGAG" has a documented switch fluorescence ratio of 1.01

In plain terms, "GAAAGTAGAG" has a documented switch fluorescence ratio of 1.01

In plain terms, "ATGATGTCGG" has a documented switch fluorescence ratio of 1.03

In plain terms, "CACGGACAGC" has a documented switch fluorescence ratio of 1.41

In plain terms, "ATGGGCTTCG" has a documented switch fluorescence ratio of 1.01

In plain terms, "TTATGTTTGT" has a documented switch fluorescence ratio of 1.01

In plain terms, "GTTTCGGGTG" has a documented switch fluorescence ratio of 1.64

In plain terms, "GGCTCATAGT" has a documented switch fluorescence ratio of 0.996

In plain terms, "TATGCTGGTT" has a documented switch fluorescence ratio of 1.05

In plain terms, "TACTGGACTT" has a documented switch fluorescence ratio of 1.14

In plain terms, "TACAGGGACC" has a documented switch fluorescence ratio of 1.02

In plain terms, "GGCCGGGTTA" has a documented switch fluorescence ratio of 1.01

In plain terms, "GGGGCCCTTG" has a documented switch fluorescence ratio of 0.976

In plain terms, "AATTCCTTGG" has a documented switch fluorescence ratio of 0.984

In plain terms, "TTTATAACCA" has a documented switch fluorescence ratio of 1.05

In plain terms, "CGGTGCGATT" has a documented switch fluorescence ratio of 1.03

In plain terms, "CGTACGTTCT" has a documented switch fluorescence ratio of 1.03

In plain terms, "AAGTTTGGTG" has a documented switch fluorescence ratio of 0.986

In plain terms, "GTTTTGGCGT" has a documented switch fluorescence ratio of 0.984

In plain terms, "GGGGTGAGGG" has a documented switch fluorescence ratio of 0.971

In plain terms, "ATGGGCTGCT" has a documented switch fluorescence ratio of 1.05

In plain terms, "CGTTTGTCCT" has a documented switch fluorescence ratio of 0.991

In plain terms, "GCAAGTAGAG" has a documented switch fluorescence ratio of 1.01

In plain terms, "TGGCCATCCT" has a documented switch fluorescence ratio of 1.62

In plain terms, "TTGGCGGACG" has a documented switch fluorescence ratio of 0.984

In plain terms, "ATATGGGTTC" has a documented switch fluorescence ratio of 1

In plain terms, "AACAGGAAAT" has a documented switch fluorescence ratio of 0.96

In plain terms, "TGGGGCGGGA" has a documented switch fluorescence ratio of 1.02

In plain terms, "CAAAGGTGCA" has a documented switch fluorescence ratio of 1.09

In plain terms, "GTCATTGCGG" has a documented switch fluorescence ratio of 0.994

In plain terms, "GATGAATGCT" has a documented switch fluorescence ratio of 0.981

In plain terms, "GCGCCCAGTT" has a documented switch fluorescence ratio of 1

In plain terms, "CTGAGATTTT" has a documented switch fluorescence ratio of 0.931

In plain terms, "GCTAAATCGC" has a documented switch fluorescence ratio of 1.04

In plain terms, "GGAGGCAGGA" has a documented switch fluorescence ratio of 1.01

In plain terms, "TTAGGTTTGC" has a documented switch fluorescence ratio of 1

In plain terms, "TTTCGACGCT" has a documented switch fluorescence ratio of 2.18

In plain terms, "GGGACTGGGT" has a documented switch fluorescence ratio of 0.999

In plain terms, "GTGGGAAGTT" has a documented switch fluorescence ratio of 0.993

In plain terms, "TCCCGGTTTT" has a documented switch fluorescence ratio of 1.1

In plain terms, "ACGTTGCTTA" has a documented switch fluorescence ratio of 1.01

In plain terms, "GGCGATGTAT" has a documented switch fluorescence ratio of 0.967

In plain terms, "TGGTCAGGGT" has a documented switch fluorescence ratio of 0.974

In plain terms, "TAATTGGAGT" has a documented switch fluorescence ratio of 0.972

In plain terms, "GCCAATTGCA" has a documented switch fluorescence ratio of 0.98
